# assayed-target: Indoleamine 2,3-dioxygenase 1 (Mus musculus)
# Sequence (P28776 whole entry): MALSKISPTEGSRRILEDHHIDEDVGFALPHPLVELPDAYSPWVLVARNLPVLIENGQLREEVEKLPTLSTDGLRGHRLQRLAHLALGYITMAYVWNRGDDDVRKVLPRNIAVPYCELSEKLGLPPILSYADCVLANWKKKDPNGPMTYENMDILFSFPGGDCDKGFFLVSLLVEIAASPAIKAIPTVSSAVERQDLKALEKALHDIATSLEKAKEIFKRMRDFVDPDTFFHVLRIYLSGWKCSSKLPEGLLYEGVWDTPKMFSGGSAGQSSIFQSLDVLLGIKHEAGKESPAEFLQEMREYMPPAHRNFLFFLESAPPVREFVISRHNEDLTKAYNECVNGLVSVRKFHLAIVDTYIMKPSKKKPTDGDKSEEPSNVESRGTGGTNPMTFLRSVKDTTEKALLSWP
quantity-name: pIC50
Reminder that pIC50 means the negative base-10 logarithm of the concentration expressed in mol/L.

Form field: pIC50 recorded for `O=C(CNc1nonc1/C(=N/O)N[C@H]1Cc2ccc(F)cc21)NCCO` with Indoleamine 2,3-dioxygenase 1 (Mus musculus) (enter value) 7.55

====

# test-protocol: Chemical stability of compound in 0.1 N NaOH assessed as parent compound remaining measured after 24 hrs
# Format: physicochemical
# applied-conditions: read-out: Stability
quantity-name: remaining at 24 h

# input compound: `O=C(CNc1nonc1/C(=N/O)N[C@H]1Cc2ccc(F)cc21)NCCO` ; wanted: its remaining at 24 h 81.5%

====

# test-protocol: Apparent permeability of compound
# Assay type: ADME
# applied-conditions: not told
quantity-name: Papp (×10⁻⁶ cm/s)
Respond with the bare value in ×10⁻⁶ cm/s.

Quick one: Papp of `O=C(CNc1nonc1/C(=N/O)N[C@H]1Cc2ccc(F)cc21)NCCO` ? 25

====

# test-protocol: Chemical stability of compound in AIBN assessed as parent compound remaining measured after 24 hrs
# Format: physicochemical
# applied-conditions: read-out: Stability
quantity-name: remaining at 24 h (%)
I only need the number, in %, no unit after it.

Recorded remaining at 24 h of `O=C(CNc1nonc1/C(=N/O)N[C@H]1Cc2ccc(F)cc21)NCCO` , please. 77.1

====

Reported log10(CLint scaled) values are given for each entry in this list.
# test-protocol: Clearance in human Hepatocyte
# Assay type: ADME, cell-based
# applied-conditions: hepatocytes, read-out: CLH
Plainly stated, the numbers are log10 of CLint scaled given in mL/min/kg.

> print(dat)
                                     smiles        quantity.name  result.number
1  CC(=O)NCCSc1nonc1/C(=N/O)N[C@H]1Cc2ccc(F)cc21  log10(CLint scaled)           2.55

Which log10(CLint scaled) reading was recorded for the compound `NC(=O)CNc1nonc1/C(=N/O)N[C@H]1Cc2ccc(F)cc21` ? 2.72

I have this compound here, `NS(=O)(=O)NCCNc1nonc1/C(=N/O)N[C@H]1Cc2ccc(F)cc21` , and I need its recorded log10(CLint scaled). 2.66

Field request: log10(CLint scaled) | item: `O=C(CNc1nonc1/C(=N/O)N[C@H]1Cc2ccc(F)cc21)NCCO` 1.68

Any idea what its log10(CLint scaled) is? The compound is `CC(=O)NCCNc1nonc1/C(=N/O)N[C@H]1Cc2ccc(F)cc21` 2.94

Can you share its log10(CLint scaled)? I mean this compound: `O=C(CSc1nonc1/C(=N/O)N[C@H]1Cc2ccc(F)cc21)NCCO` 2.03

Requested read-out: log10(CLint scaled). Entry: `NS(=O)(=O)NCCSc1nonc1/C(=N/O)N[C@H]1Cc2ccc(F)cc21` 2.79

====

# test-protocol: Thermal stability of compound assessed as parent compound remaining measured after 3 hrs
# Type: physicochemical
# applied-conditions: read-out: Stability
quantity-name: remaining at 3 h (%)
Please respond with the number in % and leave the unit unwritten.

Find the recorded remaining at 3 h belonging to `O=C(CNc1nonc1/C(=N/O)N[C@H]1Cc2ccc(F)cc21)NCCO` and report it. 88.4

====

# assayed-target: Indoleamine 2,3-dioxygenase 1 (Homo sapiens)
# Sequence (P14902 whole entry): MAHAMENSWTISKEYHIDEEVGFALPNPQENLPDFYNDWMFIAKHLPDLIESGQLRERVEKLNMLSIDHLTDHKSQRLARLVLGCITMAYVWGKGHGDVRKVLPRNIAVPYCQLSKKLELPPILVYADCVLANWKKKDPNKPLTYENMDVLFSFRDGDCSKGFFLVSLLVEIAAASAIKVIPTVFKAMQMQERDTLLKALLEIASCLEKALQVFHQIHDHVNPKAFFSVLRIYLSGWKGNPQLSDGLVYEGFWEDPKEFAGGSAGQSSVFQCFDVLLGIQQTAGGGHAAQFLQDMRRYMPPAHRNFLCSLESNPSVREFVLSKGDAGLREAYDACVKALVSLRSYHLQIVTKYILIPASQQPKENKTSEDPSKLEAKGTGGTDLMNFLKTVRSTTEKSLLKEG
# test-protocol: Inhibition of recombinant His-tagged IDO1 (unknown origin) expressed in Escherichia coli preincubated for 30 mins followed by substrate tryptophan addition and measured after 60 mins by fluorescence based assay
quantity-name: pIC50
# pIC50: negative log10 of molar concentration; output just the value

Sample records with pIC50:
> print(dat)
                                   molecule                            assayed.target  result.number
1  Nc1nonc1/C(=N/O)NC1Cc2cc(F)c(F)cc21 (centres undefined)  Indoleamine 2,3-dioxygenase 1 (Homo sapiens)           6.41
2  Nc1nonc1/C(=N/O)NC1CCCc2ccccc21 (centres undefined)  Indoleamine 2,3-dioxygenase 1 (Homo sapiens)           5.56
3  Nc1nonc1/C(=N/O)NC1Cc2cc(F)ccc21 (centres undefined)  Indoleamine 2,3-dioxygenase 1 (Homo sapiens)           6.13

What pIC50 value was documented for this molecule, `Nc1nonc1/C(=N/O)NC1Cc2ccccc2C1` ? 4.36
